B1: library; numbered along this chain (parent)
chain: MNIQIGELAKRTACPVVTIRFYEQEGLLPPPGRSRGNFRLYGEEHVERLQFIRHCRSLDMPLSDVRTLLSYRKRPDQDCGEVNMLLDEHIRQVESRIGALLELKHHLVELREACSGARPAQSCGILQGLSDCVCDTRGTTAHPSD

variants of: B1; test: sfGFP reporter fluorescence (15 h) (µM FITC); higher = stronger transcriptional activation; details: library round: Round 1; ligand: 1 µM Pb
This section presents variants with their documented sfGFP reporter fluorescence values.
measured-metric: sfGFP reporter fluorescence

• MNIQIGELAKRTACPVVTIRFYEQEGLLPPPGRSRGNFRLYGEEHVERLQFIRHCRSLDMPLSDVRTLLSYRKRPDQDCGEVNMLLDEHIRQVESRIGALLELKHHLVELREACSGARPAQSCGILQGLSHCVCKTRGTTAHPSD [D131H D135K] = 0.0876
• MNIQIGELAKRTACPVVTIRFYEQEGLLPPPGRSRGNFRLYGCEHVERLQFIRHCRSLDMPLSDVRTLLSYRKRPDQDCGEVNMLLDEHIRQVESRIGALLELVHHLVELREACSGARPAQSCGILQGLSDCVCDTRGTTAHPSD [E43C K104V] = 0.0922
• MNIQIGELAKRTACPVVTIRFYEQEGLLPPPGRSRGNFRLYGEEHVERLQFIRHCRSLDMPLSDVRTLLSYRKRPDQDCGEVNMLLDEHIRQVESSIGALLELKHHLVELREACSGARPAQSCGILQGLSDCVCDTRGTTAHPSD [R96S] = 0.0924
